# system: human GR (Homo sapiens)
# protocol_notes: Trans-Activation Modulation of Glucocorticoid Receptor (GRAMMER), MMTV-LUC reporter gene
# Format: cell-based
# Design: endogenous in cells
# condition_description: A549; read-out: Transactiviation A549 Cells GRAMMER Emax (%)
As shown below, each of these compounds has a reported Emax value.
Record the value in %, omitting the unit from your answer.

compound="C[C@]12Cc3cnn(-c4ccc(F)cc4)c3C=C1CC[C@@]2(O)CCc1ccc(F)cc1 [Example 46 WO 2004/075840 A2, reference compound]" observed_measurement=26
compound="COc1ccccc1CC[C@]1(O)CCC2=Cc3c(cnn3-c3ccc(F)cc3)C[C@@]21C [Example 58 WO 2004/075840 A2, reference compound]" observed_measurement=28
compound="C[C@]12Cc3cnn(-c4ccc(F)cc4)c3C=C1CCC[C@@H]2[C@@H](O)Cc1ccccc1 [Example 22 WO 03/086294 A2, reference compound]" observed_measurement=85
compound="C[C@]12Cc3cnn(-c4ccc(F)cc4)c3C=C1CC[C@@]2(O)CCc1ccccc1Cl [Example 40 WO 2004/075840 A2, reference compound]" observed_measurement=98
compound="C[C@]12Cc3cnn(-c4ccc(F)cc4)c3C=C1CC[C@@]2(O)CCc1ccccc1F [Example 70 WO 2004/075840 A2, reference compound]" observed_measurement=144
compound="C[C@]12Cc3cnn(-c4ccc(F)cc4)c3C=C1CCC[C@@]2(O)CCc1ccccc1Cl [Example 41 WO 2004/075840 A2, reference compound]" observed_measurement=92

From here, focus on the item given below.
Form field Emax, entry C[C@]12Cc3cnn(-c4ccc(F)cc4)c3C=C1CC[C@@]2(O)CCc1ccccc1 [Example 2 WO 2004/075840 A2, reference compound] : 73

###

# system: human GR (Homo sapiens)
# Sequence (P04150 1-777): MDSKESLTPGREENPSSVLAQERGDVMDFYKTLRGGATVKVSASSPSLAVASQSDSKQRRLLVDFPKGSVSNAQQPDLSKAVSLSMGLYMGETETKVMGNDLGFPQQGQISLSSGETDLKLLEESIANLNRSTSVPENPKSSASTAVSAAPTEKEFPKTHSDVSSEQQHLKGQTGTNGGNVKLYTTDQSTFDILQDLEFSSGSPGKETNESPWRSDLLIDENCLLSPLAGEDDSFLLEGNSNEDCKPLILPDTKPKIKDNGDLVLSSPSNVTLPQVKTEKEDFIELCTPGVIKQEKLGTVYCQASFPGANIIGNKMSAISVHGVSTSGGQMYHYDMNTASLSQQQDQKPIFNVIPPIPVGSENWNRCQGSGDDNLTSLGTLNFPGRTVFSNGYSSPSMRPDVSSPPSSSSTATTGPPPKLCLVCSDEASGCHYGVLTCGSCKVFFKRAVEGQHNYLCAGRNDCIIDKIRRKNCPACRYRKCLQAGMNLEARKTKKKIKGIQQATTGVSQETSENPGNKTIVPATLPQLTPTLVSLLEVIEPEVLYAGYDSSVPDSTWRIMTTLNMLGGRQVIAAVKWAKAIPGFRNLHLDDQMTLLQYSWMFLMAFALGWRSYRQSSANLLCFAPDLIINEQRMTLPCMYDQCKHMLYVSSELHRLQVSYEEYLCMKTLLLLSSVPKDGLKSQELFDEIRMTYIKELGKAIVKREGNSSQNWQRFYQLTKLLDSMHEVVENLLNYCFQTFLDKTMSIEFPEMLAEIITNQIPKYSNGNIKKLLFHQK
# protocol_notes: Transrepression Assay (GITAR), TNFα-β-lactamase reporter gene in U937 cells
# Format: cell-based
# Set-up: U937 cells contain an endogenous glucocorticoid receptor (GR); endogenous in cells; host or cells: U937 cells stably transfected with the TNF-α promoter/β-lactamase reporter only
# condition_description: Table 1; U937 cells; IP = inflection point; read-out: Transrepression U937 Cells GITAR IP
measured_parameter: pEC50
Please report pEC50 as the negative decimal logarithm of the molar concentration, giving only the number.

Consider the following illustrative entries.
compound="CC(C)[C@@H](C)NC(=O)c1c(F)cccc1CC[C@]1(O)CCC2=Cc3c(cnn3-c3ccc(F)cc3)C[C@@]21C [Example 48]" observed_measurement=6.70
compound="C[C@]12Cc3cnn(-c4ccc(F)cc4)c3C=C1CC[C@@]2(O)CCc1ccccc1C(F)C(N)=O (single isomer, unassigned) [Example 198]" observed_measurement=6.71

Form field pEC50, entry C[C@]12Cc3cnn(-c4ccccc4)c3C=C1CC[C@@]2(O)CCc1ccccc1C(N)=O [Example 43] : 7.01

Form field pEC50, entry C[C@]12Cc3cnn(-c4ccc(F)cc4)c3C=C1CC[C@@]2(O)CCc1cccc(F)c1[C@H](N)C(F)(F)F [Example 151] : 6.68

Form field pEC50, entry C[C@]12Cc3cnn(-c4ccc(F)cc4)c3C=C1CC[C@@]2(O)CCc1ccc(F)cc1C#N [Example 163] : 6.52

Form field pEC50, entry C[C@]12Cc3cnn(-c4ccc(F)cc4)c3C=C1CC[C@@]2(O)CCc1cccc(F)c1CNS(=O)(=O)CC(F)(F)F [Example 86] : 6.61

Form field pEC50, entry CC1(NC(=O)c2ccccc2CC[C@]2(O)CCC3=Cc4c(cnn4-c4ccc(F)cc4)C[C@@]32C)CC1 [Example 28] : 7.19
